The values you see were collected from patent US8124780B2.

System: gastric acid secretion
Test: animal or person
Format: in vivo, dog
Conditions: Canis lupus familiaris, iv, read-out: Inhibitory effect against gastric acid secretion (%)
Where a name gives a salt, the structure may show the parent alone.
READOUT KIND: inhibition in vivo at 0.8 mg/kg (%)
One number for each entry, in %.

For orientation, consider the following solved cases.
MOLECULE	UNIT STRING	inhibition in vivo at 0.8 mg/kg
Cc1c(OC2CCC3(CC2)OCC(C)(C)CO3)ccnc1C[S+]([O-])c1nc2ccccc2[nH]1 (stereo not shown) [Example 81, sodium salt]	%	96
Cc1c(OCC2COC3(CCOCC3)OC2)ccnc1C[S+]([O-])c1nc2ccccc2[nH]1 (stereo not shown) [Example 10, sodium salt]	%	98
CCC1(COc2ccnc(C[S+]([O-])c3nc4ccccc4[nH]3)c2C)OCCCO1 (stereo not shown) [Example 42, sodium salt]	%	60
Cc1c(OCCC2COC(C)(C)O2)ccnc1C[S+]([O-])c1nc2ccccc2[nH]1 (stereo not shown) [Example 64, sodium salt]	%	100
Cc1c(OCC2COC(CF)(CF)OC2)ccnc1C[S+]([O-])c1nc2ccccc2[nH]1 (stereo not shown) [Example 7, sodium salt]	%	99
[O-][S+](Cc1cc(OCC2COC3(CCC3)OC2)ccn1)c1nc2ccccc2[nH]1 (stereo not shown) [Example 57, sodium salt]	%	98

Data request: # query: inhibition in vivo at 0.8 mg/kg | item Cc1c(OCC2COCOC2)ccnc1C[S+]([O-])c1nc2ccccc2[nH]1 (stereo not shown) [Example 53, sodium salt] | system: gastric acid secretion
Data returned: 99
